Origin of the recorded values: patent US20250222063A1

# test.details: Skin homogenate study (degradation half-life, LC-MS/MS)
# Type: in vitro ADME, human
# experimental.setup: pooled human skin homogenate, 37° C., compound working solution 40 μg/mL mixed with equal volume of homogenate
Non-standard residues stand in square brackets, D forms with d. Residues, ends and D or L forms follow the SMILES beside them. Sar = CNCC(=O)O
# Half life in skin homogenate per entry

The cases that follow already have their Half life in skin homogenate on record.
compound: NCC(=O)N[C@@H](CC(=O)O)C(=O)O [Gly-Asp] (H-Gly-Asp-OH)
result: >8 h

compound: C[C@@H](N)C(=O)NCC(=O)O [Ala-Gly (D)] (H-[dA]-Gly-OH)
result: >8 h

compound: NC(=O)CC(NC(=O)C(N)Cc1c[nH]c2ccccc12)C(=O)O (stereo not drawn) [Trp-Asn] (H-Trp-Asn-OH; configuration not given here)
result: 0.75 h

Challenge: Specify Half life in skin homogenate for CN(CC(=O)O)C(=O)CN [Gly-Sar] (H-Gly-[Sar]-OH) and stop.
Response given: >8 h
